# ASSAY SYSTEM: hMCH-1R (Homo sapiens (Human), UniProt Q99705)
# Sequence (Q99705 whole entry): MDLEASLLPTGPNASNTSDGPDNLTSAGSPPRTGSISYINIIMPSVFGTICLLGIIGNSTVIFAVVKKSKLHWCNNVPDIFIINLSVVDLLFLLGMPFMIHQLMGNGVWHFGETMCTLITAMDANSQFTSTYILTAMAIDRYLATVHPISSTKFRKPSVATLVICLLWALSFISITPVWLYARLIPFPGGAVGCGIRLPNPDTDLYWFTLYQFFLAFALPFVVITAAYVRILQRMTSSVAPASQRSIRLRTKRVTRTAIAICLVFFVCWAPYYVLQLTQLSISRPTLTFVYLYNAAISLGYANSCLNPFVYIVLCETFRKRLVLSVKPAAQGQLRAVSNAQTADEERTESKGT

COMPOUND	UNIT SPEC	IC50
Cc1cc(CN2CCC[C@@H](O)C2)ccc1C(=O)Cn1ccc(OCc2ccc(Br)cn2)cc1=O	nM	23
Cc1cc(CN(C)C)ccc1C(=O)Cn1ncc(OCc2ccc(Br)cn2)cc1=O	nM	16
CCNCc1ccc(C(=O)Cn2ccc(OCc3ccc(Br)cn3)cc2=O)c(C)c1	nM	50
Cc1cc(CN2CCC(C)(O)C2)ccc1C(=O)Cn1ncc(OCc2ccccc2)cc1=O (centres unmarked)	nM	10
Cc1cc(CN2CCC(O)CC2)ccc1C(=O)Cn1ccc(OCc2ccc(Br)cn2)cc1=O	nM	16
Cc1cc(CN2CCC(C)(O)C2)ccc1C(=O)Cn1ncc(OCc2ccc(Br)cn2)cc1=O (centres unmarked)	nM	18
Cc1cc(CN2CC3CC(C2)C3O)ccc1C(=O)Cn1ccc(OCc2ccccc2)cc1=O (centres unmarked)	nM	16
Cc1cc(CN2CCC(CO)CC2)ccc1C(=O)Cn1ncc(OCc2ccc(Cl)cn2)cc1=O	nM	26
